# credit: paper PMC11945486

For each entry below, report its EC50 value.
Study Target: mTAS1R2-WT/mTAS1R3-I60T (Mus musculus, UniProt Q925D8+Q925I4, I60T)
Sequence (Q925I4 20-843): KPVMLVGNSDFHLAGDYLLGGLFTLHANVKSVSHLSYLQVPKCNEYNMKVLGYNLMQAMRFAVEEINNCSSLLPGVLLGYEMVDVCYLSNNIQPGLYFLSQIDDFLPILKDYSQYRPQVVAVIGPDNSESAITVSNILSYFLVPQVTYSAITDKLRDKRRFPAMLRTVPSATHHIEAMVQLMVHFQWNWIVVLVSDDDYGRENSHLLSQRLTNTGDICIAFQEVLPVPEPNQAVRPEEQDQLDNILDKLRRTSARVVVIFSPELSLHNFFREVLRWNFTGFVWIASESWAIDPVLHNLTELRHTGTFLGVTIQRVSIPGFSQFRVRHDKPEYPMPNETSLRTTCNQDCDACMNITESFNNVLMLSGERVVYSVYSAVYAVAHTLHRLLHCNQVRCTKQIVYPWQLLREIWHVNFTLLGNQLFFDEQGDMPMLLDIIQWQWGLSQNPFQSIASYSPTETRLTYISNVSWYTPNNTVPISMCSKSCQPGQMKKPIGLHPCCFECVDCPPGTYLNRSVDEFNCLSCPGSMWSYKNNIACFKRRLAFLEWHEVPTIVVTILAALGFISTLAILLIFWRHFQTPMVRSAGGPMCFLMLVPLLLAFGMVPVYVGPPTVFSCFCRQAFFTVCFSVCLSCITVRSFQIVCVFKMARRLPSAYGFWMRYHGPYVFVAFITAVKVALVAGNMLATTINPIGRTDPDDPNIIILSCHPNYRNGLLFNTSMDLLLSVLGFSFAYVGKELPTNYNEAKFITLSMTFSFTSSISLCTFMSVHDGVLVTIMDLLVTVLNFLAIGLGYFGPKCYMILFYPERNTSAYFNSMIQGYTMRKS
Sequence (Q925D8 21-858 I60T): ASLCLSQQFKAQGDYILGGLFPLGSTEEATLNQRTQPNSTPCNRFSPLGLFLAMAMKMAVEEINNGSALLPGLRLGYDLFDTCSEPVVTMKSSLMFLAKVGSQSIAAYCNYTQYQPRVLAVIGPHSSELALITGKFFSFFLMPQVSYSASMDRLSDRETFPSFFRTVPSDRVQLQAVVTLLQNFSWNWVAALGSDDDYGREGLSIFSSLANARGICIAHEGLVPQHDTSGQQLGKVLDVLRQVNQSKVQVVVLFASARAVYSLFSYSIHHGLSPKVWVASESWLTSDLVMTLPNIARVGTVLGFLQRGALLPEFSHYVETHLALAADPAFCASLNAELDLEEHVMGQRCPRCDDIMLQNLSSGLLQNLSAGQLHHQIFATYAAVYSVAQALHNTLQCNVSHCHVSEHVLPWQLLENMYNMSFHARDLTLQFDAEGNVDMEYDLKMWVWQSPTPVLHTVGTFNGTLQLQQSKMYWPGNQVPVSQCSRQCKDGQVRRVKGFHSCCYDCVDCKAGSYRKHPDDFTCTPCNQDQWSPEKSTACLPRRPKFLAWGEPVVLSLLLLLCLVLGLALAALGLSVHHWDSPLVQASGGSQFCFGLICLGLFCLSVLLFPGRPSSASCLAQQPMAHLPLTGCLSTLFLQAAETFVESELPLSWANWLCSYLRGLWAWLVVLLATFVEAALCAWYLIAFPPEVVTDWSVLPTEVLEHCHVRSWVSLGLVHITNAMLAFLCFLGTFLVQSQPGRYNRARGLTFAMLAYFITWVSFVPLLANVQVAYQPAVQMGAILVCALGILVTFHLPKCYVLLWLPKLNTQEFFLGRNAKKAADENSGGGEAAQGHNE
Test Summary: Calcium mobilisation assay, HEK293T-Gα16gust44 cells, mouse TAS1R3-I60T variant
Condition Label: mTAS1R2-WT + mTAS1R3-I60T; "-": no activation
Express the result in µM but write the number alone.

Lookup: Suppose we examine the molecule `O=C1NS(=O)(=O)c2ccccc21` ; what EC50 value has been reported?
Found: 2540

Lookup: Need EC50, item `CC1=CC(=O)NS(=O)(=O)O1`
Found: 744

Lookup: Name the recorded EC50 for C=C1C[C@@]23CC[C@H]4[C@@](C)(CCC[C@@]4(C)C(=O)O[C@@H]4O[C@H](CO)[C@@H](O)[C@H](O[C@@H]5O[C@H](CO)[C@@H](O)[C@H](O)[C@H]5O)[C@H]4O[C@@H]4O[C@H](CO)[C@@H](O)[C@H](O)[C@H]4O)[C@@H]2CC[C@]1(O[C@@H]1O[C@H](CO)[C@@H](O)[C@H](O[C@@H]2O[C@H](CO)[C@@H](O)[C@H](O)[C@H]2O)[C@H]1O[C@@H]1O[C@H](CO)[C@@H](O)[C@H](O)[C@H]1O)C3 [Rebaudioside M, rebaudioside M] .
Found: 73

Lookup: Quick one: EC50 for C[C@H](CC[C@@H](O[C@@H]1O[C@H](CO[C@@H]2O[C@H](CO)[C@@H](O)[C@H](O)[C@H]2O)[C@@H](O)[C@H](O)[C@H]1O[C@@H]1O[C@H](CO)[C@@H](O)[C@H](O)[C@H]1O)C(C)(C)O)[C@H]1CC[C@@]2(C)[C@@H]3CC=C4[C@@H](CC[C@H](O[C@@H]5O[C@H](CO[C@@H]6O[C@H](CO)[C@@H](O)[C@H](O)[C@H]6O)[C@@H](O)[C@H](O)[C@H]5O)C4(C)C)[C@]3(C)[C@H](O)C[C@]12C [Mogroside V, mogroside V] ?
Found: 225

Lookup: Endpoint output: EC50 of `OC[C@H]1O[C@H](O[C@]2(CCl)O[C@H](CCl)[C@@H](O)[C@@H]2O)[C@H](O)[C@@H](O)[C@H]1Cl` . Value?
Found: 1520

---

Study Target: human TAS1R2-WT/TAS1R3-WT (Homo sapiens, UniProt Q7RTX0+Q8TE23)
Construct: expressed in transfected cells; host or cells: HEK293T-Gα16gust44
Sequence (Q8TE23 20-839): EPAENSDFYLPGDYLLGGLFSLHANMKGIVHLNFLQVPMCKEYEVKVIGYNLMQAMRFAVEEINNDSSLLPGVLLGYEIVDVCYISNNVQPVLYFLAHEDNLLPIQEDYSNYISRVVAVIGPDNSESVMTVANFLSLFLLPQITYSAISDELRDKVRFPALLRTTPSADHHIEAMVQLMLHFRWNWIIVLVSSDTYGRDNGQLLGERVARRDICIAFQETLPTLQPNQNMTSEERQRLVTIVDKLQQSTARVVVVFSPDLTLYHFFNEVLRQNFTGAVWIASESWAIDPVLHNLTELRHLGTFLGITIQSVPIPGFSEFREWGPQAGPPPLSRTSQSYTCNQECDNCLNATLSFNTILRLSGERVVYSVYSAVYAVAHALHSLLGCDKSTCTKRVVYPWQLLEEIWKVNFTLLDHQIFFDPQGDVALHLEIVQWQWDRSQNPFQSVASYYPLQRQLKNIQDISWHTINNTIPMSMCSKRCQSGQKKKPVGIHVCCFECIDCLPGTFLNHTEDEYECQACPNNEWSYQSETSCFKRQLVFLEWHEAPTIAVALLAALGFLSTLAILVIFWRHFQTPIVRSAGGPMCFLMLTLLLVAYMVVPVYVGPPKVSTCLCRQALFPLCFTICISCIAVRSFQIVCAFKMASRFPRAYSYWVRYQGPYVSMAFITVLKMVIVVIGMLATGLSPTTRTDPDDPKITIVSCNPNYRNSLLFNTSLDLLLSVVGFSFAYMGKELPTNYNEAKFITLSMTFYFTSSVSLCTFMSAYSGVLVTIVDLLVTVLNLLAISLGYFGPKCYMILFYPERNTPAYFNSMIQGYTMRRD
Sequence (Q7RTX0 21-852): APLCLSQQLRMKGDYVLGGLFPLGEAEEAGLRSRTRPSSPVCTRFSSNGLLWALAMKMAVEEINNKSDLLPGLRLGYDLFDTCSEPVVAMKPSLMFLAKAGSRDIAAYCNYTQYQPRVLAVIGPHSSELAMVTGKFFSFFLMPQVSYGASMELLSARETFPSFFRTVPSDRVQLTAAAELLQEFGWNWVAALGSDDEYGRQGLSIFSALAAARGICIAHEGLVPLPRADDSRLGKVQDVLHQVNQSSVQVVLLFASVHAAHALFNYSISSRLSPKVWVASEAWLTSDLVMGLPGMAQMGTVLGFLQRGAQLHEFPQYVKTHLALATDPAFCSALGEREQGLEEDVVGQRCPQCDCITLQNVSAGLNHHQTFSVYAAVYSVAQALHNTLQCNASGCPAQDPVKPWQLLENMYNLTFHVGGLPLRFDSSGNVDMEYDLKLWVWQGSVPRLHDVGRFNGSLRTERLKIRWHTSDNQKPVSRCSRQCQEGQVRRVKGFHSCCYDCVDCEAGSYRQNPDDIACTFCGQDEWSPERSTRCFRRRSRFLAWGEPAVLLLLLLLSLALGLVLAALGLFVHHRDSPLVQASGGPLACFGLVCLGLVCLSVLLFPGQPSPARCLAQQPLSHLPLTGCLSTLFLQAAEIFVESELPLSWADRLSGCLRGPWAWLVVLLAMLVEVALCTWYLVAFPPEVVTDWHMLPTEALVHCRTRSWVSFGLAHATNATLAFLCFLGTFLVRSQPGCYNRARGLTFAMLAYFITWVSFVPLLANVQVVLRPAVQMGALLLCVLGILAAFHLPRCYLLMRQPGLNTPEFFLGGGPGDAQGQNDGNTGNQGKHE
Test Summary: Calcium mobilisation assay, HEK293T-Gα16gust44 cells, human sweet taste receptor WT
Assay type: cell-based
Condition Label: TAS1R2-WT/TAS1R3-WT
Field: R1 = Variant EC50/WT EC50. Provide a value for each of the molecules that follow.
Reply with just the number.

Lookup: Can you look up the measured R1 = Variant EC50/WT EC50 of C=C1C[C@@]23CC[C@H]4[C@@](C)(CCC[C@@]4(C)C(=O)O[C@@H]4O[C@H](CO)[C@@H](O)[C@H](O[C@@H]5O[C@H](CO)[C@@H](O)[C@H](O)[C@H]5O)[C@H]4O[C@@H]4O[C@H](CO)[C@@H](O)[C@H](O)[C@H]4O)[C@@H]2CC[C@]1(O[C@@H]1O[C@H](CO)[C@@H](O)[C@H](O[C@@H]2O[C@H](CO)[C@@H](O)[C@H](O)[C@H]2O)[C@H]1O[C@@H]1O[C@H](CO)[C@@H](O)[C@H](O)[C@H]1O)C3 [Rebaudioside M, rebaudioside M] for me?
Found: 1.0

Lookup: Look up R1 = Variant EC50/WT EC50: `COC(=O)[C@H](Cc1ccccc1)NC(=O)[C@H](CC(=O)O)NCCC(C)(C)C`
Found: 1.0

Lookup: Dear colleague, I am looking for the recorded R1 = Variant EC50/WT EC50 of the following molecule: C[C@H](CC[C@@H](O[C@@H]1O[C@H](CO[C@@H]2O[C@H](CO)[C@@H](O)[C@H](O)[C@H]2O)[C@@H](O)[C@H](O)[C@H]1O[C@@H]1O[C@H](CO)[C@@H](O)[C@H](O)[C@H]1O)C(C)(C)O)[C@H]1CC[C@@]2(C)[C@@H]3CC=C4[C@@H](CC[C@H](O[C@@H]5O[C@H](CO[C@@H]6O[C@H](CO)[C@@H](O)[C@H](O)[C@H]6O)[C@@H](O)[C@H](O)[C@H]5O)C4(C)C)[C@]3(C)[C@H](O)C[C@]12C [Mogroside V, mogroside V]
Found: 1.0

Lookup: # lookup: R1 = Variant EC50/WT EC50 of COc1ccc(CCC(=O)c2c(O)cc(O[C@@H]3O[C@H](CO)[C@@H](O)[C@H](O)[C@H]3O[C@@H]3O[C@@H](C)[C@H](O)[C@@H](O)[C@H]3O)cc2O)cc1O [NHDC, neohesperidin dihydrochalcone]
Found: 1.0

Lookup: If you can, please state the reported R1 = Variant EC50/WT EC50 value of `OC[C@H]1O[C@H](O[C@]2(CCl)O[C@H](CCl)[C@@H](O)[C@@H]2O)[C@H](O)[C@@H](O)[C@H]1Cl` .
Found: 1.0

Lookup: Given the entry `CC1=CC(=O)NS(=O)(=O)O1` , report its measured R1 = Variant EC50/WT EC50.
Found: 1.0

Lookup: Consider the molecule `C=C(C)[C@@H]1CC=C(/C=N/O)CC1` and give its measured R1 = Variant EC50/WT EC50.
Found: 1.0
